// provenance: patent US20180291082A1

- TARGET_DESC: T1, HLA-B*44:02 (human)
- T1 construct: Peptide-receptive MHC monomer made by UV cleavage of a UV-sensitive peptide
- EXPERIMENTAL_DETAILS: UV-ligand exchange, anti-b2m ELISA; exchange yield grade (+ >10%, ++ >20%, +++ >50, ++++ >75%)
peptide exchange yield values by entry
RECORDED_METRIC: peptide exchange yield

> print(dat)
      binder         recorded.metric  experimental.result
1  FELPTGAGL  peptide exchange yield            20 to 50%
2  KESQLPTVM  peptide exchange yield            20 to 50%
3  AENAEYLRV  peptide exchange yield            20 to 50%
4  SEAFPSRAL  peptide exchange yield            50 to 75%
